EXPERIMENTAL DETAILS: qHTS assay for MDR1-selective chemotherapeutics: Primary screen using the drug-selected MDR subline cells KB-V1; further: nearly all actives have a fitted effect of over 60% in size
CONDITIONS USED: KB-V1 MDR cells viability, CellTiter-Glo, 72 h; series mostly up to 46.1 µM
About 13,000 (3.2%) of roughly 400,000 compounds were called active. Roughly 18% stayed inconclusive and do not appear here. The call rests on the fitted dose curve; in most records, active means well fitted cell-killing curve with a large enough effect; inconclusive means small, poorly fitted or top-dose-only effect, or effect the other way; inactive means flat fitted curve, though single readings scatter. Many of the other results were omitted from the sample, so actives are more common in it than they were.
Outcome codes: active, inactive

{"COMPOUND": "Fc1ccc(C2N3CCCN23)cc1 (stereo not given)", "ASSIGNED CATEGORY": "inactive"}
{"COMPOUND": "CCOC(=O)CNC(=O)N1Cc2cc(N3CCCCC3)ccc2-n2nncc2C1", "ASSIGNED CATEGORY": "inactive"}
{"COMPOUND": "C[C@]12CCC3C(CC[C@H]4C[C@@H](O)CC[C@]34C)C1C[C@@H](O)[C@H]2O (stereo not given in full)", "ASSIGNED CATEGORY": "inactive"}
{"COMPOUND": "C[C@]12CCCCC1=CC(=O)C1C2CC[C@@]2(C)C1C[C@@H](F)[C@@H]2O (stereo not given in full)", "ASSIGNED CATEGORY": "inactive"}
{"COMPOUND": "C[C@]12CC[C@H](O)C[C@H]1CC[C@@H]1C2CC[C@]2(C)[C@@H](C3=CC(=O)OC3)[C@@H](O)C[C@]12O (stereo not given in full)", "ASSIGNED CATEGORY": "active"}

====

EXPERIMENTAL DETAILS: qHTS assay for MDR1-selective chemotherapeutics: Primary screen using the drug-selected MDR subline cells KB-V1; further: nearly all actives have a fitted effect of over 60% in size; further: potency means the concentration at half of the fitted maximal effect
CONDITIONS USED: KB-V1 MDR cells viability, CellTiter-Glo, 72 h; series mostly up to 46.1 µM
About 13,000 (3.2%) of roughly 400,000 compounds were called active. Another 18% or so got no clear call; they are omitted. Many of the other results were omitted from the sample, so actives are more common in it than they were.

{"MOLECULE": "CCCCn1c(=O)c(C(=O)Nc2ccccc2Cl)c(O)c2ccccc21", "Potency": "inactive"}
{"MOLECULE": "CCN1C(=O)NC(=O)C2(CCCC2)C1=O", "Potency": "inactive"}
{"MOLECULE": "S=C(NCCc1ccccc1)N1Cc2cc(N3CCOCC3)ccc2-n2nncc2C1", "Potency": "inactive"}
{"MOLECULE": "O=C1CC(=O)N(Cc2ccccc2)C(=O)N1CCCCCCN1C(=O)CC(=O)N(Cc2ccccc2)C1=O", "Potency": "inactive"}
{"MOLECULE": "COc1cc(C(c2c(O)c3ccccc3oc2=O)c2c(C)n(C)n(-c3ccccc3)c2=O)ccc1O (stereo not given)", "Potency": "inactive"}
{"MOLECULE": "CCC(=NCCCO)c1c(O)n(-c2ccc(OC)cc2)c(=O)[nH]c1=O", "Potency": "inactive"}
{"MOLECULE": "Cc1c(Oc2cc(NN3CCCCC3)c([N+](=O)[O-])cc2[N+](=O)[O-])cccc1[N+](=O)[O-]", "Potency": "inactive"}
{"MOLECULE": "CCCCCCCCCCCCn1ccc(=N)cc1", "Potency": "8.2 µM (active)"}
{"MOLECULE": "CCC(C)n1c(O)c(/C=N/Nc2nc3c(c(=O)n(C)c(=O)n3C)n2C)c(=O)[nH]c1=S (stereo not given)", "Potency": "inactive"}
{"MOLECULE": "CC(C)(C)c1ccc(CN2C(=O)CN=C(c3ccccc3)c3ccccc32)cc1", "Potency": "16.4 µM (active)"}

====

EXPERIMENTAL DETAILS: qHTS assay for MDR1-selective chemotherapeutics: Primary screen using the drug-selected MDR subline cells KB-V1; further: nearly all actives have a fitted effect of over 60% in size
CONDITIONS USED: KB-V1 MDR cells viability, CellTiter-Glo, 72 h; series mostly up to 46.1 µM
Out of some 400,000 compounds screened, about 13,000 (3.2%) were called active. Inconclusive results (about 18%) are left out. The call rests on the fitted dose curve; in most records, active means well fitted cell-killing curve with a large enough effect; inconclusive means small, poorly fitted or top-dose-only effect, or effect the other way; inactive means flat fitted curve, though single readings scatter. Shown is part of a subset that was picked to be rich in actives.
Labels: active, inactive

{"COMPOUND": "Cc1cccc(OP(=O)(Oc2cccc(C)c2)OC(c2ccccc2)C(F)(F)F)c1 (stereo unspecified)", "ASSIGNED CATEGORY": "inactive"}
{"COMPOUND": "c1cc2c(cc1C1OCC3C(c4ccc5c(c4)OCO5)OCC13)OCO2 (stereo unspecified)", "ASSIGNED CATEGORY": "inactive"}
{"COMPOUND": "CC(=NCC1CCCO1)c1c(O)n(-c2ccccc2)c(=O)[nH]c1=O (stereo unspecified)", "ASSIGNED CATEGORY": "inactive"}
{"COMPOUND": "CC(C)CN1Cc2cc(N3CCCCC3)ccc2-n2nncc2C1", "ASSIGNED CATEGORY": "inactive"}
{"COMPOUND": "CCCCn1c(O)c(C(CC)=NCc2ccco2)c(=O)[nH]c1=O", "ASSIGNED CATEGORY": "active"}
{"COMPOUND": "CC/C(=N\\NC(=O)c1ccccc1O)c1c(O)n(Cc2ccccc2)c(=O)[nH]c1=O", "ASSIGNED CATEGORY": "inactive"}
{"COMPOUND": "CCCCC(=O)N/N=C/c1c(O)n(CCC2=CCCCC2)c(=O)[nH]c1=O", "ASSIGNED CATEGORY": "inactive"}
{"COMPOUND": "CN(C)CCCN=Cc1c(O)n(Cc2ccco2)c(=O)[nH]c1=O", "ASSIGNED CATEGORY": "inactive"}
{"COMPOUND": "CC(c1ccccc1)(c1ccccc1)c1ccncc1", "ASSIGNED CATEGORY": "inactive"}
{"COMPOUND": "O=C1NC(=O)C(CCOc2ccccc2)(CCc2ccccc2)C(=O)N1", "ASSIGNED CATEGORY": "inactive"}
{"COMPOUND": "O=C(Nc1cccc2ccccc12)N1CCC2(CC1)OCCO2", "ASSIGNED CATEGORY": "inactive"}

====

EXPERIMENTAL DETAILS: qHTS assay for MDR1-selective chemotherapeutics: Primary screen using the drug-selected MDR subline cells KB-V1; further: nearly all actives have a fitted effect of over 60% in size
CONDITIONS USED: KB-V1 MDR cells viability, CellTiter-Glo, 72 h; series mostly up to 46.1 µM
The campaign covered roughly 400,000 compounds. About 13,000 (3.2%) were called active. Not shown: some 18% with an inconclusive outcome. Calls come from the whole dose curve; as a rule, active = well fitted cell-killing curve with a large enough effect; inconclusive = small, poorly fitted or top-dose-only effect, or effect the other way; inactive = flat fitted curve, though single readings scatter. The list comes from a sample in which actives are over-represented; it also holds close analogues and randomly drawn compounds.
Labels: active, inactive

{"COMPOUND": "O=C(Nc1ccc(Cl)cc1C(=O)c1ccccc1)c1cc(Cl)cc(Cl)c1", "ASSIGNED CATEGORY": "inactive"}
{"COMPOUND": "O=C(COC(=O)c1ccccc1)Nc1ccc(Cl)cc1C(=O)c1ccccc1", "ASSIGNED CATEGORY": "inactive"}
{"COMPOUND": "Nc1ccc(Cc2ccc(N)c(Cl)c2)cc1Cl", "ASSIGNED CATEGORY": "inactive"}
{"COMPOUND": "CC(=O)Nc1ccccc1C(=O)OCC(=O)c1cccc2ccccc12", "ASSIGNED CATEGORY": "inactive"}
{"COMPOUND": "COC(=O)C1=C(c2cc3ccccc3s2)C[C@@H]2CC[C@H]1N2C(=O)NCCO", "ASSIGNED CATEGORY": "inactive"}
{"COMPOUND": "Cc1cccc(NC(=O)OC2CN3CCC2CC3)c1 (stereo unspecified)", "ASSIGNED CATEGORY": "inactive"}
{"COMPOUND": "O=C(O)c1cc[c]([Sb](=[O])([OH])[OH])cc1[N+](=O)[O-]", "ASSIGNED CATEGORY": "inactive"}
{"COMPOUND": "CC1CC=CCC12C(=O)NC(=S)NC2=O (stereo unspecified)", "ASSIGNED CATEGORY": "inactive"}
{"COMPOUND": "Cn1cc(C(=O)OCC(=O)N2CCCC2)c2ccccc21", "ASSIGNED CATEGORY": "active"}
{"COMPOUND": "CC(C)c1ccc(OCC(=O)N2CCCN(C)CC2)cc1", "ASSIGNED CATEGORY": "inactive"}
{"COMPOUND": "CN1CCN(C(=S)SCC(=O)Nc2ccc(Cl)cc2C(=O)c2ccccc2)CC1", "ASSIGNED CATEGORY": "active"}

====

EXPERIMENTAL DETAILS: qHTS assay for MDR1-selective chemotherapeutics: Primary screen using the drug-selected MDR subline cells KB-V1; further: nearly all actives have a fitted effect of over 60% in size
CONDITIONS USED: KB-V1 MDR cells viability, CellTiter-Glo, 72 h; series mostly up to 46.1 µM
Excerpt: A prime difficulty in effectively treating cancer is the development of cellular resistance to multiple structurally unrelated anticancer drugs, a phenomenon known as multidrug resistance (MDR). […] Numerous strategies to overcome P-gp-mediated MDR have been explored, including the design of drugs that evade recognition and efflux, and development of inhibitors to block efflux and restore drug accumulation. […]
Hit rate of the full screen: of about 400,000 compounds, about 13,000 (3.2%) were called active. Inconclusive results (about 18%) are left out. Calls follow the shape of the dose curve; as a rule, active = well fitted cell-killing curve with a large enough effect; inconclusive = small, poorly fitted or top-dose-only effect, or effect the other way; inactive = flat fitted curve, though single readings scatter. For the sample, actives were picked, then their nearest neighbours and some compounds at random.
Classes used: active, inactive

{"COMPOUND": "Cc1nn(-c2ccccc2)c(C)c1NC(=O)COC(=O)Cc1ccccc1", "ASSIGNED CATEGORY": "inactive"}
{"COMPOUND": "Cc1cc(C(=O)OCC(=O)Nc2c(F)cccc2F)c(C)n1C1CC1", "ASSIGNED CATEGORY": "inactive"}
{"COMPOUND": "CC12CCC(O)CC1CCC1C2CCC2(C)C(C(=O)CC(O)C(F)(F)F)CCC12 (centres undefined)", "ASSIGNED CATEGORY": "active"}
{"COMPOUND": "Cc1ccccc1NC(=O)COC(=O)c1cc(C)n(C2CC2)c1C", "ASSIGNED CATEGORY": "active"}
{"COMPOUND": "C[C@]12CCC3C(CC[C@H]4[C@H](O)[C@H](O)CC[C@]34C)C1CC[C@@H]2O (some centres undefined)", "ASSIGNED CATEGORY": "inactive"}
{"COMPOUND": "O=C1NC(=O)C(CCc2ccccn2)(Cc2cccc(Cl)c2Cl)C(=O)N1c1ccc(Br)cc1 (centres undefined)", "ASSIGNED CATEGORY": "active"}
{"COMPOUND": "COc1cc(-n2c(=S)[nH]c3ccc(C)cc3c2=O)c(Cl)cc1Cl", "ASSIGNED CATEGORY": "active"}
{"COMPOUND": "CCn1cc(CN2CCCC(C(=O)c3cccc(C(F)(F)F)c3)C2)cn1 (centres undefined)", "ASSIGNED CATEGORY": "inactive"}
{"COMPOUND": "Cc1ccc(N2C(=O)NC(=O)C(CCc3ccncc3)(Cc3cccc(Cl)c3Cl)C2=O)cc1 (centres undefined)", "ASSIGNED CATEGORY": "inactive"}
